Parameter MIC: see the listing below.
System: Staphylococcus aureus
Assay: Antimicrobial activity against methicillin-resistant Staphylococcus aureus 003
Assay type: functional
RECORDED ENDPOINT: MIC (µg/mL)

COMPOUND | TARGET OF ASSAY | VALUE QUALIFIER | QUANTITATIVE READOUT
CCC(=O)O[C@H]1CC[C@]2(C)[C@H]3CC=C4[C@@H]5CC(C)(C)CC[C@]5(C(=O)O)CC[C@@]4(C)[C@]3(C)CC[C@H]2C1(C)C | Staphylococcus aureus | > | 64
CC1(C)CC[C@]2(C(=O)O)CC[C@]3(C)C(=CC[C@@H]4[C@@]5(C)CCC(=O)C(C)(C)[C@@H]5CC[C@]43C)[C@@H]2C1 | Staphylococcus aureus | = | 256
COC(=O)[C@@]1(C)CC[C@]2(C(=O)OC3O[C@H](CO)[C@@H](O)[C@H](O)[C@H]3O)CC[C@]3(C)C(=CC[C@@H]4[C@@]5(C)CC[C@H](O[C@@H]6OC[C@@H](O)[C@H](O)[C@H]6O)[C@@](C)(CO)[C@@H]5CC[C@]43C)[C@@H]2C1 (some centres undefined) | Staphylococcus aureus | > | 512
CCCCCCCCCOC(=O)[C@]12CCC(C)(C)C[C@H]1C1=CC[C@@H]3[C@@]4(C)CC[C@H](O)C(C)(C)[C@@H]4CC[C@@]3(C)[C@]1(C)CC2 | Staphylococcus aureus | > | 64
CC1(C)[C@@H](O[C@@H]2O[C@H](C(=O)O)[C@@H](O)[C@H](O[C@@H]3O[C@H](C(=O)O)[C@@H](O)[C@H](O)[C@H]3O)[C@H]2O)CC[C@]2(C)[C@H]3C(=O)C=C4[C@@H]5C[C@@](C)(C(=O)O)CC[C@]5(C)CC[C@@]4(C)[C@]3(C)CC[C@@H]12 | Staphylococcus aureus | > | 512
CC1(C)C(OC(=O)c2ccccc2)CC[C@]2(C)C3=C([C@@H](O)C[C@@H]12)[C@@]1(C)CC[C@@]2(C)CC[C@@](C)(COC(=O)c4ccccc4)C[C@H]2[C@]1(C)CC3 (some centres undefined) | Staphylococcus aureus | > | 512
C[C@H]1[C@H](C)CC[C@]2(C(=O)O)CC[C@]3(C)C(=CC[C@@H]4[C@@]5(C)C[C@@H](O)[C@H](O)C(C)(C)[C@@H]5CC[C@]43C)[C@H]12 | Staphylococcus aureus | = | 16
CC1(C)CC[C@]2(C(=O)O)CC[C@]3(C)C(=CC[C@@H]4[C@@]5(C)CC[C@H](OC(=O)c6ccccc6C(=O)O)C(C)(C)[C@@H]5CC[C@]43C)[C@@H]2C1 | Staphylococcus aureus | = | 32
CC(=O)O[C@H]1CC[C@]2(C)[C@H]3CC=C4[C@@H]5CC(C)(C)CC[C@]5(C(=O)NCCCCCCCCNC(=N)N)CC[C@@]4(C)[C@]3(C)CC[C@H]2C1(C)C | Staphylococcus aureus | = | 4
C=C1CC[C@]2(C)CC[C@]3(C)[C@H](CC[C@@H]4[C@@]5(C)CC[C@H](OC(C)=O)C(C)(C)[C@@H]5CC[C@]43C)[C@H]2[C@@H]1C [TARAXASTEROL ACETATE] | Staphylococcus aureus | > | 512
CCCCC(=O)O[C@H]1CC[C@]2(C)[C@H]3CC=C4[C@@H]5CC(C)(C)CC[C@]5(C(=O)O)CC[C@@]4(C)[C@]3(C)CC[C@H]2C1(C)C | Staphylococcus aureus | > | 64
C[C@@H]1CC[C@]2(C(=O)O)CC[C@]3(C)C(=CC[C@@H]4[C@@]5(C)CC[C@H](O)[C@@](C)(CO)[C@@H]5CC[C@]43C)[C@@H]2[C@]1(C)O | Staphylococcus aureus | = | 128
CC1(C)CC[C@]2(C(=O)O)CC[C@]3(C)C(=CC[C@@H]4[C@@]5(C)CC[C@H](OCC(O)CCCCCCCCNC(=N)N)C(C)(C)[C@@H]5CC[C@]43C)[C@@H]2C1 (some centres undefined) | Staphylococcus aureus | = | 8
CCCCCCC(=O)O[C@H]1CC[C@]2(C)[C@H]3CC=C4[C@@H]5CC(C)(C)CC[C@]5(C(=O)O)CC[C@@]4(C)[C@]3(C)CC[C@H]2C1(C)C | Staphylococcus aureus | > | 64
C[C@H]1[C@H](C)CC[C@]2(C(=O)O)CC[C@]3(C)C(=CC[C@@H]4[C@@]5(C)C[C@@H](O)[C@H](O)[C@@](C)(CO)[C@@H]5CC[C@]43C)[C@H]12 | Staphylococcus aureus | = | 16
CC(=O)O[C@H]1CC[C@]2(C)[C@H]3CC=C4[C@@H]5CC(C)(C)CC[C@]5(C(=O)NCCCNC(=N)N)CC[C@@]4(C)[C@]3(C)CC[C@H]2C1(C)C | Staphylococcus aureus | = | 1
CC1(C)CC[C@]2(C(=O)O)CC[C@]3(C)C(=CC[C@@H]4[C@@]5(C)CC[C@H](O[C@@H]6O[C@H](C(=O)O)[C@@H](O)[C@H](O[C@@H]7OC[C@@H](O)[C@H](O)[C@H]7O)[C@H]6O)C(C)(C)[C@@H]5CC[C@]43C)[C@@H]2C1 | Staphylococcus aureus | > | 512
CC1(C)CC[C@]2(C(=O)O)CC[C@]3(C)C(=CC[C@@H]4[C@@]5(CO)C[C@@H](O)[C@H](O)[C@@](C)(CO)[C@@H]5CC[C@]43C)[C@@H]2C1 | Staphylococcus aureus | > | 512
CC(=O)O[C@H]1CC[C@]2(C)[C@H]3CC=C4[C@@H]5CC(C)(C)CC[C@]5(C(=O)NCc5ccoc5)CC[C@@]4(C)[C@]3(C)CC[C@H]2C1(C)C | Staphylococcus aureus | > | 64

Values from ChEMBL document CHEMBL6127107
